System: L-02 cells
Test: Intracellular accumulation in L-02 cells by LC–MS/MS
Type: in vitro ADME, human
Details: L-02, JLZS extracts 6.5 mg/mL, time 0.5 h, n = 6
reportedEndpoint: Intracellular concentration

Answered cases to consult:
# molecule, result
measured = [
    ("COc1cc2c(cc1O)CC[n+]1cc3c(OC)c(OC)ccc3cc1-2", "13.8 ± 0.8 ng/mL"),
    ("c1c2c(cc3c1OCO3)-c1cc3ccc4c(c3c[n+]1CC2)OCO4", "44.0 ± 11.4 ng/mL"),
    ("COc1cc2c(cc1OC)-c1cc3ccc(OC)c(OC)c3c[n+]1CC2", "15.6 ± 2.7 ng/mL"),
    ("CC(=O)O[C@@H]1C[C@H](O)[C@@]23CO[C@@H](O)[C@]1(C)[C@@H]2C[C@@H](O)[C@]1(C)[C@@H]3C(=O)[C@H](OC(C)=O)[C@@]2(C)[C@H](c3ccoc3)C[C@H]3O[C@]321", "13.6 ± 4.0 ng/mL"),
    ("COc1ccc2cc3[n+](cc2c1OC)CCc1cc2c(cc1-3)OCO2", "3.7 ± 0.3 ng/mL"),
    ("COc1cc2c(cc1OC)-c1c(C)c3ccc(OC)c(OC)c3c[n+]1CC2 [DHC, dehydrocorydaline]", "26.1 ± 3.0 ng/mL"),
]

Field: next molecule
Dear colleague, I am looking for the recorded Intracellular concentration of the following molecule: c1cc2c(c3c1CC1c4cc5c(cc4CCN1C3)OCO5)OCO2 (stereo not shown) [THC, tetrahydrocoptisine]
13.3 ± 0.5 ng/mL
